Entry source: paper PMC8041433

molecular target: recombinant human AChE (Homo sapiens, UniProt P22303); test: biochemical; conditions: IC50 (uM)
IC50 vs 60 µM: less than gives Met; not less than gives Not met.

> print(dat)
                                   compound  class.label
1  CCN(C(=O)c1cc(C)cc(OC[C@H](C)Nc2ccncc2)c1)C(C)C.Cc1ccc(S(=O)(=O)O)cc1 [GW473178E methyl benzene sulfonic acid]          Met
2                CC(C)Nc1nc(Cl)nc(NC(C)C)n1      Not met
3  CCCCCCCCCCCCCC[n+]1ccccc1 [Tetradecylpyridinium bromide]          Met

Could you please tell me whether IC50 recorded for CCOP(=S)(OCC)OC(Cl)C(Cl)(Cl)Cl (centres unmarked) is less than 60 µM? Not met

Hello, I'm reviewing records and need to know if IC50 of `C[n+]1cc2c3c(ccc2c2ccc4cc5c(cc4c21)OCO5)OCO3` is below 60 µM. Could you check? Met

Please check: IC50 for CCN(CC)C(=O)[C@@H]1C=C2c3cccc4[nH]cc(c34)C[C@H]2N(C)C1 [Lysergide] , strictly under 60 µM or not? Not met

Lab log: compare recorded IC50 with 60 µM; is it strictly lower for `COP(=O)(OC)O/C(C)=C/C(=O)N(C)C` ? Not met

Input `O=C(O)/C=C/C(=O)O.O=C1c2ccccc2C(=O)N1CCc1noc(-c2ccc(CN3CCCCCC3)s2)n1` ; condition: IC50 strictly below 60 µM. Does it hold? Met

* * *

target: AChE in SH-SY5Y spheroids (Homo sapiens, UniProt P22303); test: cell-based; conditions: potency (IC50), SH-SY5Y spheroids (24 h)
Flag rule - IC50 less than 5 µM flags fulfilled; the remaining entries get not fulfilled.

Find out if reported IC50 for `COP(=O)(OC)SCn1c(=O)oc2cc(Cl)cnc21` is less than 5 µM fulfilled

Hello, I'm reviewing records and need to know if IC50 of `CNC(=O)O/N=C(\SC)C(=O)N(C)C` is below 5 µM. Could you check? fulfilled

* * *

biological target: AChE in SH-SY5Y cells (Homo sapiens); assay: cell-based
Sequence (P22303 32-614): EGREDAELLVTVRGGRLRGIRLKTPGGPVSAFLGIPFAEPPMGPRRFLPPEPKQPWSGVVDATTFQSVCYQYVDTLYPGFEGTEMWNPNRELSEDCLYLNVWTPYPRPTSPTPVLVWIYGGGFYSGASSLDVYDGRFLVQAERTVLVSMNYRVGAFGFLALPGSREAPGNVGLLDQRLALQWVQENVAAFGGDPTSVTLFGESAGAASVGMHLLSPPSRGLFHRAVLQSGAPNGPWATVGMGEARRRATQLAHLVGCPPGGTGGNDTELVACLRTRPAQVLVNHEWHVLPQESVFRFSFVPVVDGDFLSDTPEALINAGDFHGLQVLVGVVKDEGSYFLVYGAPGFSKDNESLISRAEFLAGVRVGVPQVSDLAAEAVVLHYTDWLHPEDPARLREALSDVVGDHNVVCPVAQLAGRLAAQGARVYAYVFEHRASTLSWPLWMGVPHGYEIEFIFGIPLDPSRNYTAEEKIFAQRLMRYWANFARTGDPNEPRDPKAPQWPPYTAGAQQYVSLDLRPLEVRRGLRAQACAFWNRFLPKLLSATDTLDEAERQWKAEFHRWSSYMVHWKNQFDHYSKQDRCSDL
Quick list: CC-v2 (curve classes) per entry.
The response must contain the number and no unit.

Use the examples below as a reference point.
molecule	CC-v2 (curve classes)
CCOP(=S)(OCC)SC(CCl)N1C(=O)c2ccccc2C1=O (stereo not shown) [Dialifor]	-2.1
C[C@H]1[C@@H]2Cc3ccc(O)cc3[C@@]1(C)CCN2C.C[C@H]1[C@@H]2Cc3ccc(O)cc3[C@@]1(C)CCN2C.O=C(O)/C=C/C(=O)O [(+)-Metazocine fumarate (2:1)]	-1.1
C=CC[N+]1([C@H]2C[C@H]3[C@@H]4CC[C@H]5C[C@H](OC(C)=O)[C@@H](N6CCCCC6)C[C@]5(C)[C@H]4CC[C@]3(C)[C@H]2OC(=O)CC)CCCCC1 [Rapacuronium bromide, reference compound]	-2.1

Case C[n+]1cc2c3c(ccc2c2ccc4cc5c(cc4c21)OCO5)OCO3 [Sanguinarine] , AChE in SH-SY5Y cells (Homo sapiens), CC-v2 (curve classes) recorded as -2.1

Case CCOP(=S)(Oc1ccc([N+](=O)[O-])cc1)c1ccccc1 (stereo not shown) [EPN] , AChE in SH-SY5Y cells (Homo sapiens), CC-v2 (curve classes) recorded as 4

Item: Cc1ccc2c(c1)OCC(=O)CO2 [7-Methyl-2H-1,5-benzodioxepin-3(4H)-one] | System: AChE in SH-SY5Y cells (Homo sapiens) | CC-v2 (curve classes): -2.1

Tested on AChE in SH-SY5Y cells (Homo sapiens): CNC(=O)/C=C(\C)OP(=O)(OC)OC [Monocrotophos] . Observed CC-v2 (curve classes): -2.1
